BUN reference
Organism: Rattus norvegicus
Assay: Open TG-GATES - Regimen: Daily Repeat
Type: toxicity, organism-based, Sprague-Dawley
Set-up: regimen Daily Repeat, gender Male, age 6 weeks
Details: in vivo, po, 0 mg/kg, […], tissue Plasma, route gavage, dose level Control, time 28 day
measured_property: BUN (mg/dL)

compound: NC(=O)N/N=C/c1ccc([N+](=O)[O-])o1
measured_property: BUN
obs_value: 16.6
--
compound: Cn1c(=O)c2[nH]cnc2n(C)c1=O.O
measured_property: BUN
obs_value: 18.2
--
compound: CSc1ccc2c(c1)N(CCC1CCCCN1C)c1ccccc1S2 (stereo unspecified)
measured_property: BUN
obs_value: 20.4
--
compound: Clc1ccccc1CN1CCc2sccc2C1
measured_property: BUN
obs_value: 18.2
--
compound: CC(=O)Oc1ccccc1C(=O)O
measured_property: BUN
obs_value: 17
--
compound: NC(=O)N1c2ccccc2C=Cc2ccccc21 [CARBAMAZEPINE]
measured_property: BUN
obs_value: 18
